- System: KMS-12-BM (Plasma Cell Myeloma)
- experiment: combination Emax (second highest fraction inhibited in the dose matrix, 72 h); higher = more inhibition; extreme values may be limits of the assay
Entries annotated with measured combination Emax
Returns: the value as a bare number; no unit string appended.

COc1cccc(OCCCN)c1-c1cc(Nc2cnc(C#N)cn2)n[nH]1 [Prexasertib] + C[C@@H]1COCCN1C2=NC(=NC(=C2)C3(CC3)[S@](=N)(=O)C)C4=C5C=CNC5=NC=C4 [AZD6738] (first compound max 1 µM, 7x7, partner max 10 µM) = 1
Cc1c2c(nn1C)CSCc1cc(n(C)n1)CSc1cc(c3ccccc3c1)OCCCc1c(C(=O)O)n(C)c3c-2c(Cl)ccc13 [AZD5991] + C=CCn1c(=O)c2cnc(Nc3ccc(N4CCN(C)CC4)cc3)nc2n1-c1cccc(C(C)(C)O)n1 [AZD1775] (first compound max 1 µM, partner max 1 µM) = 1
NC1(C(=O)N[C@@H](CCO)c2ccc(Cl)cc2)CCN(c2ncnc3[nH]ccc23)CC1 [Capivasertib] + CC(=O)c1c(C)c2cnc(Nc3ccc(N4CCNCC4)cn3)nc2n(C2CCCC2)c1=O [Palbociclib] (first compound max 10 µM, 7x7, partner max 10 µM) = 0.734

Attention now turns to another entry.
Query: Recorded combination Emax of CC(=O)c1c(C)c2cnc(Nc3ccc(N4CCNCC4)cn3)nc2n(C2CCCC2)c1=O [Palbociclib] + CN(CC[C@H](CSC1=CC=CC=C1)NC2=C(C=C(C=C2)S(=O)(=O)NC(=O)C3=CC=C(C=C3)N4CCC(CC4)[C@H](C5=CC=CC=C5C6=CC=C(C=C6)Cl)O)S(=O)(=O)C(F)(F)F)CCO [AZD4320] (first compound max 10 µM, 7x7, partner max 1 µM) , please.
Response: 1
